target: CNR1 (Homo sapiens, UniProt P21554); construct: host or cells: CHO-K1; experiment: cAMP Hunter eXpress CNR1 (CB1) CHO-K1 GPCR assay; format: cell-based; details: antagonist mode, EC80 of CP55940, forskolin, CHO-K1 cells; read-out: IC50, inhibition of CNR1-agonist-induced cAMP downregulation
Sequence (P21554 whole entry): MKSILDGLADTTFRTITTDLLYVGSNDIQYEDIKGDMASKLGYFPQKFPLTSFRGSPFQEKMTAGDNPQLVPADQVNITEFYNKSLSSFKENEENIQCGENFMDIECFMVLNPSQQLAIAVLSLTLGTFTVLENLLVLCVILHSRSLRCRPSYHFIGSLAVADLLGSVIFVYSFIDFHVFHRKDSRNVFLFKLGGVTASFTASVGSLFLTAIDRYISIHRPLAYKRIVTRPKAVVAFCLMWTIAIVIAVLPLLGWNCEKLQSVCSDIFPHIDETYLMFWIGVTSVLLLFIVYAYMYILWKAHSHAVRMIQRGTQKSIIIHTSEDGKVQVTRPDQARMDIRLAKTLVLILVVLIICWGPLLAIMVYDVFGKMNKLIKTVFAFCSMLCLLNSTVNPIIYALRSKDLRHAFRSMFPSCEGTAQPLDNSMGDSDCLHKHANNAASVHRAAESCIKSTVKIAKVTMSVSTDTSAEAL
Measurement Label: IC50 (µM)

Molecule	Study System	Unit Label	Test Result
CC(=O)N[C@@H](CCCC#C/C=C/Cl)CCCCCCC(Cl)Cl [Compound 4, taveuniamide F]	CNR1 (Homo sapiens, UniProt P21554)	µM	21

====

Molecular target: GPR119 (Homo sapiens)
Sequence (Q8TDV5 1-335): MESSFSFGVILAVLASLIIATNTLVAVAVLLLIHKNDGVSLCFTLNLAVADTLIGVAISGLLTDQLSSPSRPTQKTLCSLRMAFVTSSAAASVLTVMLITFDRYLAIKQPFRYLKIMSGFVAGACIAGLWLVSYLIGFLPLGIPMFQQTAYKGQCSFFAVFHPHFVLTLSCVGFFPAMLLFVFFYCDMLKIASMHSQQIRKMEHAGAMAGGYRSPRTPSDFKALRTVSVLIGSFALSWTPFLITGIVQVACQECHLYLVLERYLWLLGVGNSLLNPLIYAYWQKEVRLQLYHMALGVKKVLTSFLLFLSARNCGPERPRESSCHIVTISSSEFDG
Assay: PathHunter β-arrestin GpcrMAX assay
Settings: antagonist dose–response, 10-point, HEK293 cells, 30 min

Compound	Study System	Unit Label	IC50
CC(=O)N[C@@H](CCCC#C/C=C/Cl)CCCCCCC(Cl)Cl [Compound 4, taveuniamide F]	GPR119 (Homo sapiens)	µM	11.7

====

assay: MTT cell viability assay; assay type: cell-based; details: human, HEK293 cells; 24 h exposure, majority of tested concentrations (below 100 μM)
Measurement Label: viability at 24 h (%)

Compound	Measurement Label	Unit Label	Test Result
CC(=O)N[C@@H](CCCC#C/C=C/Cl)CCCCCCC(Cl)Cl [Compound 4, taveuniamide F]	viability at 24 h	%	100

====

Biological target: human recombinant cannabinoid CNR1 receptors (Homo sapiens, UniProt P21554)
Sequence (P21554 whole entry): as the sequence (P21554 whole entry) above
Experiment: Competitive radioligand binding assay ([3H]SR141716A)
Conditions: 2 nM [3H]SR141716A, 60 min, 37 °C, Chem-1 cell membranes
Experimental: (a) Competitive radioligand binding assay of 4 to CNR1. Membrane homogenate of rat hematopoietic Chem-1 cells expressing human recombinant CNR1 receptors is incubated with 2 nM [3H]SR141716A for 60 min at 37 °C. […] The assay was carried out by Eurofins Panlabs Discovery Services (New Taipei City, Taiwan). […] Membranes were filtered and washed four times and the filters were counted to determine [^3H]SR141716A as specifically bound. […]
Measurement Label: Ki (µM)

Compound	Study System	Measurement Label	Test Result
CC(=O)N[C@@H](CCCC#C/C=C/Cl)CCCCCCC(Cl)Cl [Compound 4, taveuniamide F]	human recombinant cannabinoid CNR1 receptors (Homo sapiens, UniProt P21554)	Ki	34
